src = patent US20110020460A1

target.or.test.system: human GPR119 (Homo sapiens, UniProt Q8TDV5)
Construct: host or cells: HEK293-CRE-beta-lactamase
Sequence (Q8TDV5 whole entry): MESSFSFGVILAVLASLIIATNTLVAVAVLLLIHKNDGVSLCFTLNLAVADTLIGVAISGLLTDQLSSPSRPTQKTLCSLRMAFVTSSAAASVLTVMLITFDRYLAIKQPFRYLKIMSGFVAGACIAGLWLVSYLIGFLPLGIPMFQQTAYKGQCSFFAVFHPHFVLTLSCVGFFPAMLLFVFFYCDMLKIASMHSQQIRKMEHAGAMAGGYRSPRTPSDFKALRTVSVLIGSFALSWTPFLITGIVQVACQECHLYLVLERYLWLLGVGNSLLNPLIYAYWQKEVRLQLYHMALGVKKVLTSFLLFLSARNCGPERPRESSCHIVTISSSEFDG
test.name: beta-lactamase reporter functional assay (hGPR119 HEK293-CRE beta-lactamase cells)
Format: cell-based
particulars: percent of maximal activity relative to standard GPR119 agonist (WO2005121121) at 10 microM; one value per run; read-out: Intrinsic Activity* (B-lactamase)
parameter: Emax (%)

Example results:
compound: CC(C)OC(=O)N1CCC(n2ncc(COc3ccc(F)cc3F)c2C#N)CC1
measured: 98
//
compound: CC(C)OC(=O)N1CCC(n2ncc(COc3ccc(-c4cncn4C)cc3F)c2C#N)CC1
measured: 102
//
compound: CC(C)OC(=O)N1CCC(n2ncc(COc3ccc(C#N)cc3F)c2C#N)CC1
measured: 100

I: Cc1nc(S(C)(=O)=O)ccc1NCc1cnn(C2CCN(C(=O)OC(C)C)CC2)c1C#N
II: Cc1ncccc1OC(C)c1cnn(C2CCN(C(=O)OC(C)C)CC2)c1C#N (centres unmarked)
Which numeric Emax is bigger, that of I or that of II ? Please reply using the label of the selected record. I
